System: Staphylococcus aureus
Assay: In vivo efficacy against Staphylococcus aureus NCTC 10649M in mouse protection test after p.o. administration.
Type: functional
Settings: Staphylococcus aureus, po; read-out: ED50
Below, each entry is listed with its recorded ED50.
Answer with a number only, understood to be in mg/kg.

Consider the reported ED50 for these molecules:
* COCCN[C@H]1CCN(c2c(F)cn3c(=O)c(C(=O)O)cc(C4CC4)c3c2C)C1 | 18.1
* Cc1c(N2C[C@@H](N)[C@@H](C3CC3)C2)c(F)cn2c(=O)c(C(=O)O)cc(C3CC3)c12 (stereo in doubt; 3s) | 3.4
* Cc1c(N2CCCC(NC3CC3)C2)c(F)cn2c(=O)c(C(=O)O)cc(C3CC3)c12 (configuration not stated) | 2.1

Prompt: Look up and state reported ED50 for "Cc1c(N2C[C@@H]3CCCC[C@]3(CN)C2)c(F)cn2c(=O)c(C(=O)O)cc(C3CC3)c12"
Completion: 17.7

Prompt: Look up and state reported ED50 for "Cc1c(N2C[C@H]3CCN[C@H]3C2)c(F)cn2c(=O)c(C(=O)O)cc(C3CC3)c12"
Completion: 5

Prompt: Look up and state reported ED50 for "Cc1c(N2C[C@H](C3CC3)[C@@H](N)C2)c(F)cn2c(=O)c(C(=O)O)cc(C3CC3)c12"
Completion: 11.2

Prompt: Look up and state reported ED50 for "Cc1c(N2CC[C@@H](NCCF)C2)c(F)cn2c(=O)c(C(=O)O)cc(C3CC3)c12"
Completion: 9.6

Prompt: Look up and state reported ED50 for Cc1c(N2C[C@@H]3CCN[C@@H]3C2)c(F)cn2c(=O)c(C(=O)O)cc(C3CC3)c12 (stereo in doubt)
Completion: 1.5

Prompt: Look up and state reported ED50 for "Cc1c(N2CC[C@@H]3NCCC[C@@H]32)c(F)cn2c(=O)c(C(=O)O)cc(C3CC3)c12"
Completion: 23.9

Prompt: Look up and state reported ED50 for Cc1c(N2CC[C@H](N)C2)c(F)cn2c(=O)c(C(=O)O)cc(C3CC3)c12 (stereo in doubt; 3i)
Completion: 3

Prompt: Look up and state reported ED50 for "Cc1c(N2CC[C@H](C)[C@@H](N)C2)c(F)cn2c(=O)c(C(=O)O)cc(C3CC3)c12"
Completion: 1.9

Prompt: Look up and state reported ED50 for "Cc1c(N2C[C@H]3NCCO[C@@H]3C2)c(F)cn2c(=O)c(C(=O)O)cc(C3CC3)c12"
Completion: 11.5

Prompt: Look up and state reported ED50 for Cc1c(N2C[C@@H](N)[C@H](C3CC3)C2)c(F)cn2c(=O)c(C(=O)O)cc(C3CC3)c12 (stereo in doubt)
Completion: 10.9

Prompt: Look up and state reported ED50 for "Cc1c(N2CC[C@@H]3[C@H](N)[C@@H]3C2)c(F)cn2c(=O)c(C(=O)O)cc(C3CC3)c12"
Completion: 4.1

----------
System: Burkholderia cepacia
Experiment: In vitro antibacterial activity against gram negative Pseudomonas cepacia 2961
Type: functional
Conditions: Burkholderia cepacia; read-out: MIC
Outcome measure: log10(MIC) (log10 of the value in µg/mL)
Log10 applied to MIC; unit prior to transform: µg/mL.

• Cc1c(N2C[C@H]3NCCO[C@@H]3C2)c(F)cn2c(=O)c(C(=O)O)cc(C3CC3)c12 = 0.49

Prompt: Quote Burkholderia cepacia log10(MIC) for entry CN[C@@H]1CN(c2c(F)cn3c(=O)c(C(=O)O)cc(C4CC4)c3c2C)C[C@H]1C (stereo in doubt) .
Completion: -0.11

Prompt: Quote Burkholderia cepacia log10(MIC) for entry "Cc1c(N2C[C@@H]3CCCN[C@@H]3C2)c(F)cn2c(=O)c(C(=O)O)cc(C3CC3)c12" .
Completion: 0.19

----------
System: Enterococcus faecium
Assay: In vitro antibacterial activity against gram-positive Enterococcus faecium ATCC 8043
Format: functional
Settings: Enterococcus faecium, ATCC 8043; read-out: MIC
Outcome measure: MIC (µg/mL)
Answer with a number only, understood to be in µg/mL.

Consider the reported MIC for these compounds:
- Cc1c(N2CC[C@H](NCCF)C2)c(F)cn2c(=O)c(C(=O)O)cc(C3CC3)c12: 0.1
- Cc1c(N2CC[C@H](C)[C@H](N)C2)c(F)cn2c(=O)c(C(=O)O)cc(C3CC3)c12 (stereo in doubt; 3ss): 0.2
- Cc1c(N2C[C@@H]3CCCC[C@]3(N)C2)c(F)cn2c(=O)c(C(=O)O)cc(C3CC3)c12: 0.2
- Cc1c(N2C[C@H]3CCN[C@H]3C2)c(F)cn2c(=O)c(C(=O)O)cc(C3CC3)c12: 0.2
- Cc1c(N2CCC[C@H](NC3CC3)C2)c(F)cn2c(=O)c(C(=O)O)cc(C3CC3)c12: 0.1

Prompt: Look up and state reported MIC for "CN[C@H]1CN(c2c(F)cn3c(=O)c(C(=O)O)cc(C4CC4)c3c2C)C[C@@H]1C"
Completion: 0.2

Prompt: Look up and state reported MIC for "Cc1c(N2CCC[C@@H](NC3CC3)C2)c(F)cn2c(=O)c(C(=O)O)cc(C3CC3)c12"
Completion: 0.05

Prompt: Look up and state reported MIC for Cc1c(N2CCC(O)C2)c(F)cn2c(=O)c(C(=O)O)cc(C3CC3)c12 (stereo not drawn)
Completion: 0.05

Prompt: Look up and state reported MIC for Cc1c(N2CCCC(NC3CC3)C2)c(F)cn2c(=O)c(C(=O)O)cc(C3CC3)c12 (stereo not drawn)
Completion: 0.05

Prompt: Look up and state reported MIC for "Cc1c(N2C[C@@H](C)[C@H](N)C2)c(F)cn2c(=O)c(C(=O)O)cc(C3CC3)c12"
Completion: 0.05

Prompt: Look up and state reported MIC for "Cc1c(N2C[C@@H]3CCCN[C@@H]3C2)c(F)cn2c(=O)c(C(=O)O)cc(C3CC3)c12"
Completion: 0.1

Prompt: Look up and state reported MIC for "Cc1c(N2C[C@@H]3COC[C@]3(CN)C2)c(F)cn2c(=O)c(C(=O)O)cc(C3CC3)c12"
Completion: 0.05

Prompt: Look up and state reported MIC for "Cc1c(N2C[C@@H]3OCCN[C@@H]3C2)c(F)cn2c(=O)c(C(=O)O)cc(C3CC3)c12"
Completion: 0.1

Prompt: Look up and state reported MIC for "Cc1c(N2CC[C@@H](N)C2)c(F)cn2c(=O)c(C(=O)O)cc(C3CC3)c12"
Completion: 0.05

----------
Tested on: Staphylococcus aureus
Experiment: In vitro antibacterial activity against gram-positive Staphylococcus aureus 1775
Type: functional
Conditions: Staphylococcus aureus; read-out: MIC
Below, each entry is listed with its recorded MIC.
Answer with a number only, understood to be in µg/mL.

Consider the reported MIC for these compounds:
• Cc1c(N2CCCC2)c(F)cn2c(=O)c(C(=O)O)cc(C3CC3)c12 = 0.78
• Cc1c(N2C[C@@H]3CCCC[C@]3(CN)C2)c(F)cn2c(=O)c(C(=O)O)cc(C3CC3)c12 = 0.2
• Cc1c(N2CC[C@H](C)[C@@H](N)C2)c(F)cn2c(=O)c(C(=O)O)cc(C3CC3)c12 = 0.39
• Cc1c(N2CCC(CN)C2)c(F)cn2c(=O)c(C(=O)O)cc(C3CC3)c12 (stereo not given) = 0.39

From here, focus on the item given below.
Prompt: Look up and state reported MIC for "CCN[C@H]1CCN(c2c(F)cn3c(=O)c(C(=O)O)cc(C4CC4)c3c2C)C1"
Completion: 1.56

----------
Below, each entry is listed with its recorded ED50.
Tested on: Streptococcus pneumoniae
Assay: In vivo efficacy against Streptococcus pneumoniae ATCC 6303 in mouse protection test after s.c. administration.
Type: functional
Conditions: Streptococcus pneumoniae, sc; read-out: ED50
Answer with a number only, understood to be in mg/kg.

Consider the reported ED50 for these compounds:
- Cc1c(N2CCC[C@H](NC3CC3)C2)c(F)cn2c(=O)c(C(=O)O)cc(C3CC3)c12: 4.3
- Cc1c(N2C[C@H]3CNC[C@H]3C2)c(F)cn2c(=O)c(C(=O)O)cc(C3CC3)c12: 1.3
- Cc1c(N2C[C@@H](N)[C@H](C3CC3)C2)c(F)cn2c(=O)c(C(=O)O)cc(C3CC3)c12 (stereo in doubt): 8
- Cc1c(N2CC[C@@H](NCCF)C2)c(F)cn2c(=O)c(C(=O)O)cc(C3CC3)c12: 8

Prompt: Look up and state reported ED50 for "CCN[C@H]1CCN(c2c(F)cn3c(=O)c(C(=O)O)cc(C4CC4)c3c2C)C1"
Completion: 2.9

Prompt: Look up and state reported ED50 for CN[C@@H]1CN(c2c(F)cn3c(=O)c(C(=O)O)cc(C4CC4)c3c2C)C[C@H]1C (stereo in doubt; 3v)
Completion: 5

Prompt: Look up and state reported ED50 for Cc1c(N2CCCC(NC3CC3)C2)c(F)cn2c(=O)c(C(=O)O)cc(C3CC3)c12 (configuration not stated)
Completion: 1

Prompt: Look up and state reported ED50 for "Cc1c(N2CC[C@@H](C)[C@H](N)C2)c(F)cn2c(=O)c(C(=O)O)cc(C3CC3)c12"
Completion: 2.1

Prompt: Look up and state reported ED50 for "Cc1c(N2C[C@H]3CCN[C@H]3C2)c(F)cn2c(=O)c(C(=O)O)cc(C3CC3)c12"
Completion: 2.3
